# System: MS2 coat protein
# method: apparent KD of MS2 coat protein, switch ON state; designed switch direction (-1 OFF switch, 1 ON switch): 1; higher = weaker reporter binding
# measurement context: FMN input: 0 or 200 uM; Eterna round: R93 (includes R88 designs)
Would you kindly list apparent KD of MS2 coat protein for each of these sequences?

Observe how each entry below is paired with its result.
1. AAGAAACAUGAGGAUCACCCAUGUAAGAUAUACACAGGAUAUGCGAAAAGAAACAAAGAAGCAGAAGGGUGGAAAA [75%, Ex sub1, 10]: 14.9 nM
2. UGGAGACAUGAGGAUCACCCAUGUGAGAAGAGGCGAGGAUAUCGAAAGAAAGAAGAGAAACGAGAAGGCGCGAGGG [salish99-SS1-043]: 49.7 nM
3. CUAGUUGCAUACUAGGAUAUACACUGGGUGACAUGAGGAUCACCCAUGUAAAAGCACAUUCGGUAGUAGAAGGAGUGUGCAGGUC [Ceedesbi]: 92.6 nM
4. AGAAAACAUGAGGAUCACCCAUGUAGAAAUAUGGGAGGAUAUACAAAGACGAAAGUCGAAGUAGAAGGCCUAAAGA [Mat - Same State 1 - Meechl mod - D123]: 22 nM
5. AAAAAACAUGAGGAUCACCCAUGUAAAAAAAACACAGGAUAUCCCUUUUUUAAAUGGGAAGGAGAAGGGUGAAAAA [Nob's Hobby 11 - Jieux - Same State 1]: 43.1 nM
6. AGGAAACAUGAGGAUCACCCAUGUAAAAAUAUGGGAGGAUAUACGAAGACGAAAGAAAAAGUAGAAGGCCUAAAAG [Garnet 14]: 63.6 nM
7. AAUAAUUAUAACGAGGAUAUCCGUAAUAAGACAUGAGGAUCACCCAUGUAAUAAGGGUAAAUAAAGGAGAAGGCGUAGGGUGAAA [JR_SS002_Sub002]: 44.3 nM
8. UGAAGACAUGAGGAUCACCCAUGUGGGAUUAUGGGAGGAUAUACAAAGACGAGAGUCAGAGUAGAAGGCCUAGGAA [salish99-ss1-116(!)]: 36.1 nM

Annotate the sequence AAUAAAAAUAGUUAGGAUAUGAGAAUUAAGACAUGAGGAUCACCCAUGUAAUUAAAACAAGUAAAUCAGAAGGGACAGGGUGAAA [JR_SS002_Sub204] with its measured apparent KD of MS2 coat protein.
99.4 nM

* * *

# System: MS2 coat protein
# method: apparent KD of MS2 coat protein; designed switch direction (-1 OFF switch, 1 ON switch): 1; higher = weaker reporter binding
# measurement context: input ligand: none
What apparent KD of MS2 coat protein was measured for each of the following?
Answer as a quantity: numeral, then unit.

Here's what some known entries look like.
1) UUGCGGGCUUGAGGAUAUUGAGUACAUAUGUUUAACAUGAGGAUCACCCAUGUGGGUUGCGGUAUCGAGAAGGUAACUUCCUUC [salish99_SSNG2_r04_810] (Eterna round: R96, puzzle: Same State NG 2): 0.157 µM
2) GCUAGAAUUAAAGCCAACAUGAGGAUCACCCAUGUAUGUUGGUAGGAUAUCGUUUGCAAAGCAAACGAGAAGGGCUAAACUAGC [Mat - Same State NG 3 - JL Mod - D16] (Eterna round: R96, puzzle: Same State NG 3): 0.0938 µM
3) CUGACUUGUCAAGGAUAUCACGUCGAUUAGACGUGAGAAGGUGAUCUACACAUGAGGAUCACCCAUGUGUUACGUGGGAGUCAG [Brourd's SSNG1/1-A2 mod 20] (Eterna round: R96, puzzle: Same State NG 1): 0.0947 µM

Fill in apparent KD of MS2 coat protein for each of the 2 sequences listed.
1. GAGGGCGAAAGCGACAUGAGGAUCACCCAUGUCCUCGGAGGGCAGGAUAUCCGGCAGUAGCCGAAGGAGAAGGGUCGAAAAGAA [AK SSNG3-V2-35.1] (Eterna round: R96, puzzle: Same State NG 3)
2. AGGCUCGUGCUAGGAUAUCUAGGAUAUGGACGAGGAUUACCCGAGGAGCAUUAGCCCACCAGAGGAGAGAAGGAGCUACAUGCG [pwkr ssNG2 2F5 2FMN.12] (Eterna round: R96, puzzle: Same State NG 2)

1: 0.0536 µM; 2: 0.513 µM

* * *

# Tested on: MS2 coat protein
# method: apparent KD of MS2 coat protein; designed switch direction (-1 OFF switch, 1 ON switch): -1; higher = weaker reporter binding
# measurement context: input ligand: none
measured parameter: apparent KD of MS2 coat protein (nM)
Numbers only, in nM.

Worked examples, 2 sequences total:
1) GAGUCCUUGGUGAGGAUAUGGCGAGGAGCACUUGUCCAGAAGGCACAUGAGGAUCACCCAUGUUCUAGUAAUUG [Eternabot (L2) Solution 75] (Eterna round: R97, puzzle: Brourd's mod of Exclusion 4): 30.2
2) UCCUGACAUGAGGAUCACCCAUGUAAGGAUAUCAGCCACCCAGCAAAAGCUGGGCAAGUGAGAAGGUACACGGG [EX1 A.30] (Eterna round: R97, puzzle: Exclusion 1): 30.6

Provide apparent KD of MS2 coat protein for all items below, preserving their order.
1. ACAAAUCAUGUAGGAUAUGCGUGGCGAAGCUAUGCAGAAGGACAUGAGGAUCACCCAUGUGCUUCCGUCUGCGUACAGACGGUA [Mat - Exclusion NG 1 - Mod of JL - D16] (Eterna round: R96, puzzle: Exclusion NG 1)
2. UUAUUAUAUGUAGGAUAUGCAUAUUGUUGUUAUGCAGAAGGACAUGAGGAUCACCCAUGUAUAUUAUUGUUGUAUAUUAUAUAU [Title] (Eterna round: R96, puzzle: Exclusion NG 1)
3. UAAAGUAUAUAGGAUAUCUAGCUGGAAACAGCUAGAGAAGGAUGUACAUGAGGAUCACCCAUGUAGAUCUCAAA [Ex6/15-A2] (Eterna round: R97, puzzle: Exclusion 6)
4. UACACUGCAUGAGGAUCAAACAUGAGGAUCACCCAUGUAUAGCAGGCUUUUUGUCCGUCUUAUAAUUAUGUAGUGUA [Electric Eye 17 - Jieux - Sensor, turn-off variant 1] (Eterna round: R97, puzzle: Sensor, turn-off variant 1)
5. GUAGAGUCAGGAUAUACAAGAUCGAUAGAUCGGCGGUCCAUACAUGAGGAUCACCCAUGUAGAAGGGACUCUAC [Mat - Exclusion 2 - Eli Mod - D5] (Eterna round: R97, puzzle: Exclusion 2)
6. UACAUGAGGAUCACCCAUGUUUUGUCGUGUAUGGUAUUUAUCUAGGAUAUCAAGUUAUGUAUUUAUGAGAAGGAGAAUAUUAAU [JMF's solution 31] (Eterna round: R96, puzzle: Exclusion NG 3)

1: 91.5; 2: 24.1; 3: 16.2; 4: 15; 5: 27.2; 6: 43.2

* * *

For each entry below, report its apparent KD of K4 kissing-loop reporter value.
# Tested on: K4 kissing-loop RNA reporter;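 further: bound reporter read as fluorescence of individual clusters on recovered sequencing chips by microscopy, with normalized cluster intensities fitted with a binding model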
# method: apparent KD of K4 kissing-loop reporter; higher = weaker reporter binding
# measurement context: Eterna round: R107; input ligand: FMN 200 uM
Give bare numbers, in nM.

Past entries and their recorded results:
1) UAUAUACAUUUAUUAAUUAAAGGUUCAGAAGGAGCGUGAAUUAACACAGGUAGGUCGCUGAGCGAGUGAUGUUCGCUAUAUGGAA [JR_ExcArginiA_Sub006]: 54.1
2) AAAAUAAACCAGUGAUGUUGGUAACCAGAUACCAGCGACGAAAGUCGCCCUUGGCAGCUGUGGACGUACAAAAUAAGUACGUCCU: 218
3) UGGAGUUGACGAAAAGUCAACUCCUGAGAUACCAGUGACGAAAGUCACCCUUGGCAGCUCACUCCCAGUGAUGUUGGUUCAUAAG [#04 K4 Theophylline A Same State]: 328

Could you now look at the following sequence, please?
Return value of apparent KD of K4 kissing-loop reporter for input UGGAGUUGACGAAAAGUCAACUCCUGAGAUACCAGUGACGAAAGUCACCCUUGGCAGCUCACUGGCAGUGAUGUUGCACGAUAAA [KL-SSTheo-A1] , no commentary.
123

* * *

# Test system: MS2 coat protein
# method: apparent KD of MS2 coat protein; designed switch direction (-1 OFF switch, 1 ON switch): 1; higher = weaker reporter binding
# measurement context: input ligand: FMN 200 uM
measured parameter: apparent KD of MS2 coat protein

Some solved cases for reference:
1) CUGAGCGAUCAAGGAUAUCACGUCGAAUAGACGUGAGAAGGUGAUCCAUACAUGAGGAUCACCCAUGUAUAACAUGAAGCUCAG [SSNG1/8-A1] (Eterna round: R96, puzzle: Same State NG 1): 794 nM
2) GUUACAUGAGGAUCACCCAUGUAUGUGUGGGAGUAAGUGUCUUAGGAUAUCUGUUAUUAAAUUUAAGAGAAGGAAGAUUGUUGU [JMF's solution 36] (Eterna round: R96, puzzle: Same State NG 3): 104 nM
3) GUAGCAUACCGAGGAUAUUCAUAUAACAUGAGGAUCACCCAUGUAAGGCCACAUUAGUGGCCUUGGGAGAAGGCGGAAUGCUAC [Xeonanis - 20 Mod41] (Eterna round: R96, puzzle: Same State NG 2): 11.7 nM
4) GAGGGCGAAAGCGACAUGAGGAUCACCCAUGUCCUCGGAGGGCAGGAUAUCCGGCAGUAGCCGAAGGAGAAGGGUCGAAAAGAA [AK SSNG3-V2-35.1] (Eterna round: R96, puzzle: Same State NG 3): 53.4 nM
5) GCUCGACGUGUUGUCUACAUGAGGAUCACCCAUGUAGGUGCGGAGGAUAUCUACGUGUUUCAUGUAGAGAAGGUCGUGUCGAGC [SameState NG3 #89] (Eterna round: R96, puzzle: Same State NG 3): 40.2 nM

Would you mind giving apparent KD of MS2 coat protein for every sequence in the list below?
1. UUAUUAAUUACAUGAGGAUCACCCAUGUUUUUAUGUCAGAGACAGGAUAUAGAAGUCUCGUUUUACUAGAAGGGUCAUUAUAAG [JR_SSNG3_Sub015] (Eterna round: R96, puzzle: Same State NG 3)
2. GGUGCCAAAUAAGCCUACAUGAGGAUCACCCAUGUAUGUAGGUAGGAUAUCGUUUGCAAAGCAAACGAGAAGGGCCUAGGCACC [Mat - Same State NG 3 - JL Mod - D59] (Eterna round: R96, puzzle: Same State NG 3)
3. GAGUGGUGGAGAGGAUAUACAUUGUUAUUCACUGUAGAAGGUUCUAACAUGAGGAUCACCCAUGUAGGACUAUUCCUGAGAGUU [Parity 55 - Jieux - Same State NG 1] (Eterna round: R96, puzzle: Same State NG 1)

1. 18.6 nM
2. 26.1 nM
3. 13.1 nM
